assayed-target: T1, soluble human FcRn (human, UniProt P55899 24-297; P61769 21-119, biotinylated (Sulfo-NHS-LC-Biotin) in the ELISA; amine-coupled to CM5 chip in SPR)
T1 construct: also called shFcRn; biotinylated shFcRn
assay-overview: SPR, pH 7.4
Bridge positions count the residues as written; N and C are the ends. Ends that are not written are not given here.
metric-name: Kd (µM)

Below: 2 binders and their reported Kd.
QRFCTGHFGGLYACNGP-NH2 (disulfide 4-14 (inferred)) [SEQ ID NO:35]; 100
QRFCTGHFAGLYPCNGP-NH2 (disulfide 4-14 (inferred)) [SEQ ID NO:31]; 200

[A] QRFCTGHFGGLYPCNGP-NH2 (disulfide 4-14 (inferred)) [SEQ ID NO:1]
[B] QRFCTGHFGGAYPCNGP-NH2 (disulfide 4-14 (inferred)) [SEQ ID NO:33]
Between A and B , which one has the lower reported Kd value? Bench note: the answer is the label of the chosen record.
A
